PROPERTY MEASURED: melting point (°C)
State the answer as a number, implicitly in °C.

The following compounds have reported results that may help.
CN(C)C=NS(=O)(=O)c1cc(C(=O)NCc2ccccc2Cl)ccc1Cl [Example 16]    167
Cc1cc(C)cc(NC(=O)c2ccc(Cl)c(S(=O)(=O)N=CN(C)C)c2)c1 [Example 12]    216
Cc1cc(C)cc(OCc2ccc(Cl)c(S(=O)(=O)N=CN(C)C)c2)c1 [Example 19]    137
C=CCN(C1CCCCC1)S(=O)(=O)c1cc(S(=O)(=O)N=CN(C)C)c(Cl)cc1N [Example 33]    90

Prompt line: What value of measured melting point is listed for CC(C)CN(CC(C)C)S(=O)(=O)c1cc(S(=O)(=O)N=CN(C)C)c(Cl)cc1N [Example 29] ?
Response line: 126

Prompt line: Item CCCCCCCCNS(=O)(=O)c1cc(S(=O)(=O)N=CN(C)C)c(Cl)cc1N [Example 38] has what recorded melting point?
Response line: 110

Prompt line: Would you kindly share the measured melting point for CN(C)C=NS(=O)(=O)c1cc(S(=O)(=O)N2CCCC(C)(C)C2)ccc1Cl [Example 24] ?
Response line: 123
